Tested on: Rattus norvegicus
Experiment: Reduction of blood urea nitrogen level in alloxan-induced diabetic Wistar rat model at 36 mg/kg, po administered once daily for 15 days measured on day 18
Type: functional

{"columns": ["structure as smiles", "Activity (mg/dL)"],
 "data": [
  ["CN1C[C@H](c2ccc(F)c(F)c2)[C@]2(SC(=O)NC2=O)[C@]12C(=O)Nc1ccccc12", 35],
  ["COc1ccc([C@H]2CN(C)[C@@]3(C(=O)Nc4ccccc43)[C@@]23SC(=O)NC3=S)cc1OC", 35.5],
  ["CN1C[C@H](c2ccc(O)c(O)c2)[C@]2(SC(=O)NC2=S)[C@]12C(=O)Nc1ccccc12", 39],
  ["COc1ccc([C@H]2CN(C)[C@@]3(C(=O)Nc4ccccc43)[C@@]23SC(=O)NC3=O)cc1OC", 41.8],
  ["CN1C[C@H](c2ccc(F)c(F)c2)[C@]2(SC(=O)NC2=S)[C@]12C(=O)Nc1ccccc12", 38.5],
  ["Cc1ccc([C@H]2CN(C)[C@@]3(C(=O)Nc4ccccc43)[C@@]23SC(=O)NC3=O)cc1", 37.5]
]}
